A collection of molecules and their measured normalized growth
- PROTOCOL DETAILS: chemical genetic growth profiling, strain panel (AID 1159580);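 note: tested at 20 µM; growth read once vehicle control cultures reached saturation at 30 °C; 1 = growth at the plate median or of vehicle wells; lower values mean less growth of the strain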
- CONDITION: S. cerevisiae deletion strains, growth OD, locus YOR001W, strain rrp6, active compounds read low
Among all 5,500 compounds or so, about 2,000 (36%) were called active. Another 18% or so got no clear call; they are omitted. Some of the results follow.
TEST READOUT: normalized growth

1) CC[C@H](C)C(=O)O[C@H]1C[C@@H](C)C=C2C=C[C@H](C)[C@H](CC[C@@H]3C[C@@H](O)CC(=O)O3)[C@H]21 :: 1.02
2) CC1(C)NC(=O)N(c2ccc([N+](=O)[O-])c(C(F)(F)F)c2)C1=O :: 0.989
3) CO/N=C(\C(=O)NC1C(=O)N2C(C(=O)OC(C)OC(C)=O)=C(COC(N)=O)CSC12)c1ccco1 (stereo unspecified) :: 0.999
4) NC(=O)c1cccc(N)c1 :: 0.97
5) CCNC(=O)CC[C@H](N)C(=O)O :: 1
6) COc1c2ccoc2c(OC)c2oc(=O)ccc12 :: 0.978
7) CCCCN(CCCC)CCCOC(=O)c1ccc(N)cc1 :: 0.995
8) C=C1C(=O)O[C@@H]2C3O[C@]3(C)CC/C=C(\C)CC[C@@H]12 (stereo partly specified) :: 1.01
9) N[C@@H](CC(=O)N1CCn2c(nnc2C(F)(F)F)C1)Cc1cc(F)c(F)cc1F :: 1.01
10) CCOC(=O)Nc1nc2ccccc2[nH]1 :: 0.97
11) CC(C)C(=O)Nc1ccc([N+](=O)[O-])c(C(F)(F)F)c1 :: 1.05

---

- PROTOCOL DETAILS: chemical genetic growth profiling, strain panel (AID 1159580);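 note: tested at 20 µM; growth read once vehicle control cultures reached saturation at 30 °C; 1 = growth at the plate median or of vehicle wells; lower values mean less growth of the strain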
- CONDITION: S. cerevisiae deletion strains, growth OD, locus YNL271C, strain bni1, active compounds read low
About 2,000 (36%) of roughly 5,500 compounds were called active. Inconclusive results (about 18%) are left out. The list shows a part of the results.
TEST READOUT: normalized growth

1. CC(C)NCC(O)c1cc(O)cc(O)c1 (stereo not drawn) :: 0.98
2. CC1(C)OC(=O)C=CC2(C)C1CC(O)C1(C)C2CCC2(C)C(c3ccoc3)OC(=O)C3OC321 (stereo not drawn) :: 1.01
3. C=C1C(=O)OC2CC1C(OC(C)=O)C/C(C)=C/CC/C(C)=C/CC[C@]2(C)O (stereo partly drawn) :: 1.02

---

Listed below: normalized growth values for each entry.
- PROTOCOL DETAILS: chemical genetic growth profiling, strain panel (AID 1159580);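 note: tested at 20 µM; growth read once vehicle control cultures reached saturation at 30 °C; 1 = growth at the plate median or of vehicle wells; lower values mean less growth of the strain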
- CONDITION: S. cerevisiae deletion strains, growth OD, locus YGR229C, strain SMI1, active compounds read low
Screen size: about 5,500 compounds; about 2,000 (36%) were called active. Inconclusive results (about 18%) are left out. The list shows a part of the results.
TEST READOUT: normalized growth

1. O=C(O)Cc1ccc(O)c(O)c1 :: 0.976
2. CCCCN(CCCC)CCCOC(=O)c1ccc(N)cc1 :: 0.961
3. CC(C(O)c1ccc(O)cc1)N1CCC(Cc2ccccc2)CC1 (stereo not given) :: 0.785
4. CCCCOC(=O)c1ccccc1C(=O)OCc1ccccc1 :: 0.895
5. Cc1ccc(-n2cccc2)c(NC(=S)Nc2ccc(Br)cc2OC(F)(F)F)c1 :: 1.03
6. NC(=O)c1cccc(N)c1 :: 1.01
7. Cc1ccc(NS(C)(=O)=O)cc1N=Cc1ccc(Cl)c(Cl)c1 :: 1
8. O=c1cc[nH]c(=S)[nH]1 :: 1.03
9. CC(/C=C/c1cccc(Oc2ccc(F)cc2)c1)N(O)C(N)=O (stereo not given) :: 1
10. C#CCCCCCCCCCCCC(O)CC(O)CO (stereo not given) :: 1.07
11. Oc1ccc(Cl)cc1 :: 0.996
12. O=S1OCC2C(CO1)C1(Cl)C(Cl)=C(Cl)C2(Cl)C1(Cl)Cl (stereo not given) :: 0.992
13. Cc1cccc(Nc2ccccc2C(=O)O)c1C :: 0.729
14. COC(=O)c1c(-c2c(Cl)cccc2Cl)noc1NC(=O)NN1CCCCC1 :: 1
15. Cc1cccc(C)c1NC1=NCCCS1 :: 0.996
16. CC(=O)OCC(COC(C)=O)OC(C)=O :: 1.02
17. CC1(C)C2(Cl)C(Cl)C(Cl)C(Cl)(C(Cl)Cl)C1(Cl)C2Cl (stereo not given) :: 0.865
18. Cn1c(=O)c2[nH]cnc2n(C)c1=O :: 1.03
19. Cc1ccc(NC(=O)c2c(F)cccc2Cl)c(C(=O)Nc2ccc(F)cc2)c1 :: 1.01
20. C#CCCCCCCCCCCCC(=O)CC(O)COC(C)=O (stereo not given) :: 0.651
21. O=C1[C@H](CCC(O)c2ccc(F)cc2)[C@@H](c2ccc(O)cc2)N1c1ccc(F)cc1 (stereo not given in full) :: 1.01
22. C=CCSCC1Nc2cc(Cl)c(S(N)(=O)=O)cc2S(=O)(=O)N1 (stereo not given) :: 1.01
23. C[N+](C)(CCCCCC[N+](C)(C)CCCN1C(=O)c2cccc3cccc(c23)C1=O)CCCN1C(=O)c2cccc3cccc(c23)C1=O :: 1
24. COC(=O)C1=CCCN(C)C1 :: 1
25. CC(C)(C)CC(C)(C)c1ccc(O)c(Cc2ccc(Cl)cc2Cl)c1 :: 0.992
26. CC[N+](CC)(CC)CCOc1cccc(OCC[N+](CC)(CC)CC)c1OCC[N+](CC)(CC)CC :: 1.05
27. Cc1ccc(Cl)c(Nc2ccccc2C(=O)O)c1Cl :: 0.841
28. Oc1cc2c(cc1O)CN(C(=S)NCCc1ccc(Cl)cc1)CCC2 :: 0.128
29. CC(C)COCC(CN(Cc1ccccc1)c1ccccc1)N1CCCC1 (stereo not given) :: 0.434
30. O=C(O)Cc1c[nH]c2ccc(O)cc12 :: 1.08
31. CC12NC(=O)NC1(C)NC(=O)N2 (stereo not given) :: 1.01
32. NC(=O)C1=CN(C2OC(COP(=O)(O)OP(=O)(O)OC[C@H]3O[C@@H](n4cnc5c(N)ncnc54)C(OP(=O)(O)O)[C@H]3O)C(O)C2O)C=CC1 (stereo not given in full) :: 1
33. COc1cc([C@@H]2c3cc4c(c(O)c3C[C@H]3COC(=O)[C@@H]32)OCO4)cc(OC)c1OC :: 1.05
34. CC(C)C(=O)Nc1ccc([N+](=O)[O-])c(C(F)(F)F)c1 :: 0.978
35. CC(C)NCC(O)COc1cccc2ccccc12 (stereo not given) :: 1.08
36. O=C(Cn1ccnc1[N+](=O)[O-])NCCO :: 0.999
37. O=c1[nH]oc2c1CCNC2 :: 1.03
38. COc1ccc2c(c1O)OCC1c3cc4c(cc3OC21)OCO4 (stereo not given) :: 0.909
39. O=[N+]([O-])c1ccc(N2CCCN(C(=S)Nc3ccc(Cl)cc3Cl)CC2)nc1 :: 0.989
40. O=C(O)c1ccccc1-c1c2cc(Br)c(=O)cc-2oc2[c]([Hg])c(O)c(Br)cc12 :: 0.106

---

normalized growth for assorted compounds
- PROTOCOL DETAILS: chemical genetic growth profiling, strain panel (AID 1159580);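 note: tested at 20 µM; growth read once vehicle control cultures reached saturation at 30 °C; 1 = growth at the plate median or of vehicle wells; lower values mean less growth of the strain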
- CONDITION: S. cerevisiae deletion strains, growth OD, locus YHR013C, strain ard1, active compounds read low
About 2,000 (36%) of roughly 5,500 compounds were called active. Another 18% or so got no clear call; they are omitted. Some of the results follow.
TEST READOUT: normalized growth

1) Clc1cccc(Cl)c1NC1=NCCN1 :: 0.965 (inactive)
2) CO/N=C(\C(=O)NC1C(=O)N2C(C(=O)OC(C)OC(C)=O)=C(COC(N)=O)CSC12)c1ccco1 (stereo not drawn) :: 0.998 (inactive)
3) CC[N+](CC)(CC)CCOc1cccc(OCC[N+](CC)(CC)CC)c1OCC[N+](CC)(CC)CC :: 1.02 (inactive)
4) CCC(C)(C)C(=O)O[C@H]1C[C@@H](C)C=C2C=C[C@H](C)[C@H](CC[C@@H]3C[C@@H](O)CC(=O)O3)[C@H]21 :: 0.912 (inactive)
5) C=CCSCC1Nc2cc(Cl)c(S(N)(=O)=O)cc2S(=O)(=O)N1 (stereo not drawn) :: 0.988 (inactive)
6) CC(C)NCC(O)COc1cccc2ccccc12 (stereo not drawn) :: 0.965 (inactive)
7) CC1OC1P(=O)(O)O (stereo not drawn) :: 0.987 (inactive)
8) CCCCCCOc1ccccc1C(N)=O :: 0.916 (inactive)
9) O=S1OCC2C(CO1)C1(Cl)C(Cl)=C(Cl)C2(Cl)C1(Cl)Cl (stereo not drawn) :: 0.862 (inactive)
10) C=C1C(=O)OC2CC1C(OC(C)=O)C/C(C)=C/CC/C(C)=C/CC[C@]2(C)O (stereo partly drawn) :: 0.979 (inactive)
11) C=C1CCC2C(CC2(C)C)C(=O)CCC1O (stereo not drawn) :: 0.978 (inactive)
12) CCCCN1CCCCC1C(=O)Nc1c(C)cccc1C (stereo not drawn) :: 0.988 (inactive)
13) O=C(O)CN(CC(=O)O)Cc1cc2c(-c3ccccc3C(=O)O)c3cc(CN(CC(=O)O)CC(=O)O)c(=O)cc-3oc2cc1O :: 0.963 (inactive)
14) C=C1CCC(OC(C)=O)/C(C)=C/C[C@@H]2[C@@H]1CC2(C)C (stereo partly drawn) :: 1 (inactive)
15) CO[C@@]1(NC(=O)CSCC#N)C(=O)N2C(C(=O)O)=C(CSc3nnnn3C)CSC21 (stereo partly drawn) :: 0.964 (inactive)
16) COc1cc(-c2coc3cc(OC)c(OC)c(OC)c3c2=O)cc(OC)c1OC :: 0.996 (inactive)
17) NC(CO)C(=O)NNCc1ccc(O)c(O)c1O (stereo not drawn) :: 0.987 (inactive)
18) COc1cc2occ(-c3ccccc3)c(=O)c2c(OC)c1C :: 0.976 (inactive)
19) O=C1C=C2C=C[C@@H]3C[C@@]2(O1)[C@H]1CCCCN31 :: 1.01 (inactive)
20) Nc1ccc(N=Nc2ccccc2)c(N)n1 :: 0.573 (active)
21) CO/N=C(\C(=O)N[C@@H]1C(=O)N2C(C(=O)O)=C(COC(C)=O)CS[C@H]12)c1csc(N)n1 :: 0.94 (inactive)
22) CCOC(=O)Nc1nc2ccccc2[nH]1 :: 0.956 (inactive)
23) CCN(CC)CCOC(=O)c1ccc(N)cc1 :: 0.969 (inactive)
24) O=C1NC(=O)C(=O)C(=O)N1 :: 0.991 (inactive)
25) CCCCN(CCCC)CCCOC(=O)c1ccc(N)cc1 :: 0.961 (inactive)
26) C=C1C(=O)O[C@@H]2C3O[C@]3(C)CC/C=C(\C)CC[C@@H]12 (stereo partly drawn) :: 0.894 (inactive)
27) C=C1CCC(C2CC(=O)OC2=O)C(=O)CCC2C1CC2(C)C (stereo not drawn) :: 1.01 (inactive)
28) CCCCOC(=O)c1ccc(N)cc1 :: 0.856 (inactive)
29) CCCCNc1ccc(C(=O)OCCN(C)C)cc1 :: 0.993 (inactive)
30) C=CC(N)CCC(=O)O (stereo not drawn) :: 0.973 (inactive)
31) O=C1OC(c2ccc(O)cc2)(c2ccc(O)cc2)c2ccccc21 :: 0.954 (inactive)
32) CC(=O)OCC(OC(C)=O)C(OC(C)=O)C(OC(C)=O)C(OC(C)=O)C(COC(C)=O)OC(C)=O (stereo not drawn) :: 0.964 (inactive)
33) COc1cc(OC)c2c(=O)c(-c3ccccc3)coc2c1 :: 0.974 (inactive)
34) CCC(C)C(=O)O[C@H]1C[C@H](O)C=C2C=C[C@H](C)[C@H](CC[C@@H](O)C[C@@H](O)CC(=O)O)C21 (stereo partly drawn) :: 1.02 (inactive)
35) CC1C[C@H]2CC(=O)[C@H]3CCCN4CCC[C@H]2[C@]34C1 (stereo partly drawn) :: 1.02 (inactive)
36) C=C1CCC2C(CC2(C)C)C(=C)CC/C1=N\O (stereo not drawn) :: 1.04 (inactive)
37) COc1ccc(-c2coc3cc(OC)cc(OC)c3c2=O)cc1 :: 0.96 (inactive)
38) C[N+]1(C)C2CC(OC(=O)[C@@H](CO)c3ccccc3)CC1C1OC12 (stereo partly drawn) :: 0.957 (inactive)
